All figures here come from patent US8815875B2.

test_target: FABP4 (Homo sapiens, UniProt P15090)
Sequence (P15090 whole entry, species assumed): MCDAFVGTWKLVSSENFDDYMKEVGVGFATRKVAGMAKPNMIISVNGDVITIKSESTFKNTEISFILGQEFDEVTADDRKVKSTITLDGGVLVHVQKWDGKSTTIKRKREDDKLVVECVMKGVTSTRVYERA
protocol: TdF (Temperature Dependence Fluorescence) assay, thermal shift, FABP4
Assay type: binding
measured_metric: FABP4 TdF Kd

>  <compound>
Cc1ccc(OCc2cc(=O)n3nc(-c4ccccc4)nc3[nH]2)cc1C [1-63]

>  <test_target>
FABP4 (Homo sapiens, UniProt P15090)

>  <result_value>
B (0.5 ≦ B < 0.001 μM)

$$$$
>  <compound>
COC[C@@H]1CCCN1C(=O)c1c(Cl)cccc1OCc1cc(=O)n2nc(-c3ccccc3)nc2[nH]1 [47-9]

>  <test_target>
FABP4 (Homo sapiens, UniProt P15090)

>  <result_value>
B (0.5 ≦ B < 0.001 μM)

$$$$
>  <compound>
Cc1c(Cl)cccc1SCc1cc(=O)n2nc(-c3ccccc3)nc2[nH]1 [16-2]

>  <test_target>
FABP4 (Homo sapiens, UniProt P15090)

>  <result_value>
B (0.5 ≦ B < 0.001 μM)

$$$$

====

pKd: −log10 of the molar value.
The listing below reports pKd for compounds tested on FABP4 (Homo sapiens, UniProt P15090).

Below, each entry is followed by its recorded pKd result.
>  <compound>
CN(Cc1cc(=O)n2nc(-c3ccccc3)nc2[nH]1)c1cccnc1Br [1-51]

>  <test_target>
FABP4 (Homo sapiens, UniProt P15090)

>  <pKd>
< 6.30

$$$$
>  <compound>
O=C(NCC1(CO)CCC1)C1(OCc2cc(=O)n3nc(-c4ccccc4)nc3[nH]2)CCCCC1 [48-11]

>  <test_target>
FABP4 (Homo sapiens, UniProt P15090)

>  <pKd>
≥ 9.00

$$$$
>  <compound>
CCc1ccc(OCc2[nH]c3nc(-c4ccccc4)nn3c(=O)c2C)cc1 [15-3]

>  <test_target>
FABP4 (Homo sapiens, UniProt P15090)

>  <pKd>
< 6.30

$$$$

Tested system FABP4 (Homo sapiens, UniProt P15090); pKd recorded for O=c1cc(CSc2cccc(Cl)c2C2CCC2)[nH]c2nc(-c3ccccc3)nn12 [52-5] was ≥ 9.00

====

pKd: −log10 of the molar value.
The listing below reports pKd for molecules tested on FABP4 (Homo sapiens, UniProt P15090).

Notebook: O=c1cc(COc2cccc3cnccc23)[nH]c2nc(-c3ccccc3)nn12 , pKd read as < 6.30

Notebook: O=c1cc(COc2ccc(C(F)(F)F)cc2)[nH]c2nc(-c3ccccc3)nn12 , pKd read as < 6.30

Notebook: O=c1cc(CN2CCC(Cc3ccccc3F)C2)[nH]c2nc(-c3ccccc3)nn12 (stereo not drawn) , pKd read as < 6.30

Notebook: Cc1ccsc1-c1nc2[nH]c(COc3cccc(Cl)c3C)cc(=O)n2n1 , pKd read as < 6.30

Notebook: CNC(=O)C1(OCc2cc(=O)n3nc(-c4ccccc4)nc3[nH]2)CCCCC1 , pKd read as < 6.30

Notebook: Nc1cc(C2CC2)nn1C(=O)c1c(Cl)cccc1OCc1cc(=O)n2nc(-c3ccccc3)nc2[nH]1 , pKd read as ≥ 9.00

Notebook: O=c1cc(CSc2cccc(Cl)c2C2CC2)[nH]c2nc(-c3ccccc3)nn12 , pKd read as ≥ 9.00

Notebook: CCc1ccc(CCc2cc(=O)n3nc(-c4ccccc4)nc3[nH]2)cc1 , pKd read as < 6.30

Notebook: O=C(NC1CC1)C1(OCc2cc(=O)n3nc(-c4ccccc4)nc3[nH]2)CCCCC1 , pKd read as < 6.30

====

test_target: FABP4 (Homo sapiens)
protocol: TdF (Temperature Dependence Fluorescence) assay, thermal shift, FABP4
Assay type: binding
Text: TdF (Temperature Dependence Fluorescence) Assay for FABP3 and FABP4 The TdF assay was mainly conducted in the 96-well based CHROMO-4 real time fluorescence plate reader (BioRad). The Sypro Orange (Sigma-Aldrich), environmentally sensitive fluorescence dye, was used to monitor the protein folding-unfolding transition. […] In brief, the binding constant of the ligand at the Tm is expressed as below: […]
measured_metric: FABP4 TdF Kd

>  <molecule>
Cc1c(Cl)cccc1OC(C)c1cc(=O)n2nc(-c3ccccc3)nc2[nH]1 (single isomer, unassigned) [37-6]

>  <test_target>
FABP4 (Homo sapiens)

>  <measured_metric>
FABP4 TdF Kd

>  <result_value>
B (0.5 ≦ B < 0.001 μM)

$$$$
>  <molecule>
COC(=O)C1(NC(=O)C2(OCc3cc(=O)n4nc(-c5ccccc5)nc4[nH]3)CCCCC2)CCCCC1 [48-53]

>  <test_target>
FABP4 (Homo sapiens)

>  <measured_metric>
FABP4 TdF Kd

>  <result_value>
B (0.5 ≦ B < 0.001 μM)

$$$$
>  <molecule>
O=c1cc(CN2CCOc3c(Br)cccc32)[nH]c2nc(-c3ccccc3)nn12 [1-81]

>  <test_target>
FABP4 (Homo sapiens)

>  <measured_metric>
FABP4 TdF Kd

>  <result_value>
B (0.5 ≦ B < 0.001 μM)

$$$$
>  <molecule>
O=C(NCCO)C1(OCc2cc(=O)n3nc(-c4ccccc4)nc3[nH]2)CCCCC1 [48-17]

>  <test_target>
FABP4 (Homo sapiens)

>  <measured_metric>
FABP4 TdF Kd

>  <result_value>
B (0.5 ≦ B < 0.001 μM)

$$$$
